- SUBJECT OF TEST: T1, human IGF-1R(1-903)-Fc (human, UniProt P08069 31-933)
- T1 construct: also called hIGF-1R-Fc; SDWT; not shown: human IgG1 Fc, C-terminal tag
- PROTOCOL TEXT: biolayer interferometry (Octet), IGF-1R Fc on Protein A sensors, scFv culture supernatant
- Design: unit not given here
// boundary case: Kd (1/sec), off-rate as tabulated (XWU092 = 1.00) equal to 0.7 maps to -1; strictly smaller maps to 1

Previously resolved entries follow.
BINDER | LABEL VALUE
MJF037, C06 (VL/GS3/VH) scFv with VL S72Y (scFv, Kabat positions) scFv: DIQMTQSPLSLSASVGDRVTITCQASRDIRNYLNWYQQKPGKAPKLLIYDASSLQTGVPSRFGGSGSGTDFYFTIGSLQPEDIATYYCQQFDSLPHTFGQGTKLEIKGGGGSGGGGSGGGGSEVQLLESGGGLVQPGGSLRLSCAASGFTFSIYRMQWVRQAPGKGLEWVSGISPSGGTTWYADSVKGRFTISRDNSKNTLYLQMNSLRAEDTAVYYCARWSGGSGYAFDIWGQGTMVTVSSDDDKSFLEQKLISEEDLNSAVDHHHHHH | -1
MJF031, C06 (VL/GS3/VH) scFv with VL R30N (scFv, Kabat positions) scFv: DIQMTQSPLSLSASVGDRVTITCQASRDINNYLNWYQQKPGKAPKLLIYDASSLQTGVPSRFGGSGSGTDFSFTIGSLQPEDIATYYCQQFDSLPHTFGQGTKLEIKGGGGSGGGGSGGGGSEVQLLESGGGLVQPGGSLRLSCAASGFTFSIYRMQWVRQAPGKGLEWVSGISPSGGTTWYADSVKGRFTISRDNSKNTLYLQMNSLRAEDTAVYYCARWSGGSGYAFDIWGQGTMVTVSSDDDKSFLEQKLISEEDLNSAVDHHHHHH | 1

Please let me know if MJF040, C06 (VL/GS3/VH) scFv with VL I83M (scFv, Kabat positions) scFv: DIQMTQSPLSLSASVGDRVTITCQASRDIRNYLNWYQQKPGKAPKLLIYDASSLQTGVPSRFGGSGSGTDFSFTIGSLQPEDMATYYCQQFDSLPHTFGQGTKLEIKGGGGSGGGGSGGGGSEVQLLESGGGLVQPGGSLRLSCAASGFTFSIYRMQWVRQAPGKGLEWVSGISPSGGTTWYADSVKGRFTISRDNSKNTLYLQMNSLRAEDTAVYYCARWSGGSGYAFDIWGQGTMVTVSSDDDKSFLEQKLISEEDLNSAVDHHHHHH shows Kd (1/sec), off-rate as tabulated (XWU092 = 1.00) below 0.7.
-1

Report whether reported Kd (1/sec), off-rate as tabulated (XWU092 = 1.00) is lower than 0.7 (strictly) for MJF049, C06 (VL/GS3/VH) scFv with VH R83T (scFv, name in Kabat numbering, Kabat positions) scFv: DIQMTQSPLSLSASVGDRVTITCQASRDIRNYLNWYQQKPGKAPKLLIYDASSLQTGVPSRFGGSGSGTDFSFTIGSLQPEDIATYYCQQFDSLPHTFGQGTKLEIKGGGGSGGGGSGGGGSEVQLLESGGGLVQPGGSLRLSCAASGFTFSIYRMQWVRQAPGKGLEWVSGISPSGGTTWYADSVKGRFTISRDNSKNTLYLQMNSLTAEDTAVYYCARWSGGSGYAFDIWGQGTMVTVSSDDDKSFLEQKLISEEDLNSAVDHHHHHH
-1

In plain terms, does MJF018, C06 (VL/GS3/VH) scFv with VL V15N (scFv, Kabat positions) scFv: DIQMTQSPLSLSASNGDRVTITCQASRDIRNYLNWYQQKPGKAPKLLIYDASSLQTGVPSRFGGSGSGTDFSFTIGSLQPEDIATYYCQQFDSLPHTFGQGTKLEIKGGGGSGGGGSGGGGSEVQLLESGGGLVQPGGSLRLSCAASGFTFSIYRMQWVRQAPGKGLEWVSGISPSGGTTWYADSVKGRFTISRDNSKNTLYLQMNSLRAEDTAVYYCARWSGGSGYAFDIWGQGTMVTVSSDDDKSFLEQKLISEEDLNSAVDHHHHHH come in under 0.7 for Kd (1/sec), off-rate as tabulated (XWU092 = 1.00)?
-1

Please let me know if MJF033, C06 (VL/GS3/VH) scFv with VL T20R, R30N; VH S21E (scFv, name in Kabat numbering, Kabat positions) scFv: DIQMTQSPLSLSASVGDRVRITCQASRDINNYLNWYQQKPGKAPKLLIYDASSLQTGVPSRFGGSGSGTDFSFTIGSLQPEDIATYYCQQFDSLPHTFGQGTKLEIKGGGGSGGGGSGGGGSEVQLLESGGGLVQPGGSLRLECAASGFTFSIYRMQWVRQAPGKGLEWVSGISPSGGTTWYADSVKGRFTISRDNSKNTLYLQMNSLRAEDTAVYYCARWSGGSGYAFDIWGQGTMVTVSSDDDKSFLEQKLISEEDLNSAVDHHHHHH shows Kd (1/sec), off-rate as tabulated (XWU092 = 1.00) below 0.7.
-1

# strict comparison: is reported Kd (1/sec), off-rate as tabulated (XWU092 = 1.00) < 0.7? input = MJF042, C06 (VL/GS3/VH) scFv with VL S77G, I83G (scFv, Kabat positions) scFv: DIQMTQSPLSLSASVGDRVTITCQASRDIRNYLNWYQQKPGKAPKLLIYDASSLQTGVPSRFGGSGSGTDFSFTIGGLQPEDGATYYCQQFDSLPHTFGQGTKLEIKGGGGSGGGGSGGGGSEVQLLESGGGLVQPGGSLRLSCAASGFTFSIYRMQWVRQAPGKGLEWVSGISPSGGTTWYADSVKGRFTISRDNSKNTLYLQMNSLRAEDTAVYYCARWSGGSGYAFDIWGQGTMVTVSSDDDKSFLEQKLISEEDLNSAVDHHHHHH
1

The reported measurements were obtained from patent US20090130105A1.
